Attribute: yeast fitness
B1: tRNA (parent)
chain: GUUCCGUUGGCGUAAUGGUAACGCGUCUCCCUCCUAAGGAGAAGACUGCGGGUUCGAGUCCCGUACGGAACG

# Variants of: B1
# Test: yeast fitness relative to wild type (ratio to wild type); higher = fitter; tRNA-Arg(CCU), competitive growth, 37 C, YPD
This sample holds only a part of the variants without activity.

Would you please look over these solved cases?
Mut | yeast fitness
U13A C24U U59C G67A | ≤ 0.5
U2A C24G A37C C66U | ≤ 0.5
U28C A57U A65U | ≤ 0.5
U3A U26C U53C | ≤ 0.5
A14G U16A U47C | 0.812

Task: Returns the measured yeast fitness for the input variant. Input: U8C C11U A21G
Output: 0.7

Task: What does the data say about its yeast fitness? Entry: C4G C5U U16A C34A C66A
Output: ≤ 0.5

Task: Fill in the blank: the reported yeast fitness of C29A C55U G63C U64C is ____.
Output: ≤ 0.5
